The reported numbers originate from ChEMBL document CHEMBL1212786.

assay: AUC (0 to infinity) in Sprague-Dawley rat at 10 mg/kg, po after 24 hrs by LC/MS/MS analysis; type: ADME, organism-based; parameters: time infinity, dose 10 mg/kg, route oral; details: plasma
Measure Name: AUC(0-inf) (ng·h/mL)
Answers are plain numbers, in ng·h/mL.

Please fill in: AUC(0-inf) reported for C/C=C/C[C@@H](C)[C@@H](O)[C@H]1C(=O)N[C@@H](CC)C(=O)N(C)C(SCCN(C)C)C(=O)N(C)[C@@H](CC(C)(C)O)C(=O)N[C@@H](C(C)C)C(=O)N(C)[C@@H](CC(C)C)C(=O)N[C@@H](C)C(=O)N[C@H](C)C(=O)N(C)[C@@H](CC(C)C)C(=O)N(C)[C@@H](CC(C)C)C(=O)N(C)[C@@H](C(C)C)C(=O)N1C (single isomer, unassigned) = 26500
